test protocol: qHTS assay to identify small molecule antagonists of the estrogen receptor alpha (ER-alpha) signaling pathway using the BG1 cell line - cell viability counter screen (AID 743081);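 further: compound given together with 17beta-estradiol as the ER stimulus; nearly all actives have a fitted effect of over 45% in size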
experimental context: BG1Luc4E2 viability, CellTiter-Fluor, 22 h; series mostly up to 70.3 µM
Inconclusive results are not listed. Calls of active or inactive are those of the source. The call rests on the fitted dose curve; in most records, active means well fitted cell-killing curve with a large enough effect in the repeat runs; inconclusive means weak or mixed curves, or effect the other way; inactive means flat fitted curve, though single readings scatter.
Classes used: active, inactive

[[record]]
molecule = "CCCCCCOc1cc(C)c(O)c(C)c1C"
label = "inactive"

[[record]]
molecule = "C=CC(=O)OCCC#N"
label = "inactive"

[[record]]
molecule = "O=C1NCCN1CCN1CCC(c2cn(-c3ccc(F)cc3)c3ccc(Cl)cc23)CC1"
label = "inactive"

[[record]]
molecule = "Oc1ccc(-c2ccc(O)cc2)cc1"
label = "inactive"

[[record]]
molecule = "CN(Cc1cc(Br)cc(Br)c1N)C1CCCCC1"
label = "inactive"

[[record]]
molecule = "CC(=O)Nc1ccc(O)cc1"
label = "inactive"

[[record]]
molecule = "Clc1ccc(C(Cn2ccnc2)OCc2ccsc2Cl)c(Cl)c1 (stereo not drawn)"
label = "inactive"

[[record]]
molecule = "C=C(c1ccc(C(=O)O)cc1)c1cc2c(cc1C)C(C)(C)CCC2(C)C"
label = "inactive"

[[record]]
molecule = "CC(C)=C1CC[C@@H](C)CC1=O"
label = "inactive"

[[record]]
molecule = "SCCCCCCCCS"
label = "inactive"

[[record]]
molecule = "C[C@@H]1CC[C@H]2C(C)(C)[C@H]3C[C@@]12CC[C@@]3(C)O"
label = "inactive"

[[record]]
molecule = "CN1[C@@H]2CC[C@H]1CC(OC(=O)C(CO)c1ccccc1)C2 (stereo partly drawn)"
label = "inactive"

[[record]]
molecule = "O=C1c2c(O)ccc([N+](=O)[O-])c2C(=O)c2c([N+](=O)[O-])ccc(O)c21"
label = "active"

